The reported numbers originate from PubChem BioAssay (NCI).

experiment: NCI Yeast Anticancer Drug Screen. Data for the rad50 strain (AID 155);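 note: 0% = growth of vehicle-only cultures of the same strain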; conditions: S. cerevisiae rad50 strain growth inhibition; at 50.0 µM; hits give high values
This is part of a sample that, as a whole, favours compounds with a hit. Of some 79,000 tested, about 15% had one in any assay.
Recorded growth inhibition values for a group of molecules are listed next.
quantity_name: growth inhibition (%)

molecule=Cc1cc(OCCOc2ccc(N)cc2)ccc1N1C(N)=NC(N)=NC1(C)C measured_value=-1.5
molecule="Cc1ccc2c(c1)[nH]c(=S)n2/C=C(\\c1ccccc1)S(=O)Cc1ccccc1 (stereo not drawn)" measured_value=-23.7
molecule=N#C/C=C\c1ccc(Cl)cc1 measured_value=2.6
molecule="COc1cc(C(=O)N2C3C4CCC(C)(OC4(C)C)C32)cc(OC)c1OC (stereo not drawn)" measured_value=18.4
molecule=COC(=O)/C=C1\C(=O)c2ccccc2-c2ccccc21 measured_value=35.8
molecule="O=P(CCC(O)c1ccccc1)(c1ccccc1)c1ccccc1 (stereo not drawn)" measured_value=-7.45
molecule=C=CC(C)(C)c1c2c(c(O)c3c(=O)c4ccc(O)c(O)c4oc13)C=CC(C)(C)O2 measured_value=-12.2
molecule=Oc1c(Cl)cc(Cl)cc1C=Nc1ccc2c(ccc3c4ccccc4ccc23)c1 measured_value=7.95
molecule=CC(=O)c1cc2cc(Br)ccc2oc1=O measured_value=13.5
molecule=CCCCC(C)(CCN)CCCC measured_value=5.05
molecule=C=C1CC[C@H]2C(C)=CC[C@@H]3[C@H](OC(=O)[C@H]3CN(C)C)[C@@H]12 measured_value=8.05
molecule="CCC1CCC2c3c([nH]c4ccccc34)C3C(=O)N(c4ccc(OC)cc4)C(=O)C3C2C1 (stereo not drawn)" measured_value=-13.1
molecule=CC(=O)NCCc1ccc(Cl)c(Cl)c1 measured_value=13.6

----------
Recorded growth inhibition values for a group of molecules are listed next.
assay: NCI Yeast Anticancer Drug Screen. Data for the mec2-1 strain (AID 157); conditions: S. cerevisiae mec2-1 strain, at 50.0 µM, hits give high values
The panel holds about 79,000 compounds, 15% with a hit somewhere; the sample as a whole holds those more often. Calls of active or inactive are those of the source. No stated cut-off is given here; in the data, active means growth inhibition above about 70%; inactive means the rest.
quantity_name: growth inhibition

molecule="COc1cccc2c1C(=O)c1c(O)c3c(c(O)c1C2=O)C[C@@](O)(C(C)=O)CC3S(=O)(=O)O (stereo partly drawn)" quantity_name="growth inhibition" measured_value="-7.45% (inactive)"
molecule=COc1ccc(N(C)S(=O)(=O)c2ccccc2)cc1 quantity_name="growth inhibition" measured_value="-8.9% (inactive)"
molecule="C[Si](C)(CCCOCC1CO1)O[Si](C)(C)CCCOCC1CO1 (stereo not drawn)" quantity_name="growth inhibition" measured_value="-29.4% (inactive)"
molecule=O=C(O)c1ccc2sc3ccccc3c(=O)c2c1 quantity_name="growth inhibition" measured_value="32.8% (inactive)"
molecule="CC(Oc1ccc(OCC2CCCCC2)cc1)C(=O)OCC(=O)c1ccc(-c2ccccc2)cc1 (stereo not drawn)" quantity_name="growth inhibition" measured_value="-7.4% (inactive)"
molecule=COC(=O)CCC(=O)CC(=O)C(=O)Nc1c(Cl)cc([N+](=O)[O-])cc1Cl quantity_name="growth inhibition" measured_value="-17.1% (inactive)"
molecule=O=C(O)c1c(Br)c(Br)c(Br)c(Br)c1C(=O)Nc1ccc(Cl)cc1C(F)(F)F quantity_name="growth inhibition" measured_value="10.1% (inactive)"
molecule="CS(=O)(=O)CCC(Nc1ccc([N+](=O)[O-])cc1[N+](=O)[O-])C(=O)O (stereo not drawn)" quantity_name="growth inhibition" measured_value="6.1% (inactive)"
molecule=Cc1ccc(S(=O)(=O)N(C)c2cc(Cl)c(C(=O)O)cc2Cl)cc1 quantity_name="growth inhibition" measured_value="-14.9% (inactive)"
molecule="COc1ccc(-c2c3c(n(C4OC(COC(C)=O)C(OC(C)=O)C(OC(C)=O)C4OC(C)=O)c(=S)c2C#N)CC(C)(C)CC3=O)cc1 (stereo not drawn)" quantity_name="growth inhibition" measured_value="-0.8% (inactive)"
molecule="CCOC(=O)C12CC(COc3ccc([N+](=O)[O-])cc3)ON1OC(COc1ccc([N+](=O)[O-])cc1)C2 (stereo not drawn)" quantity_name="growth inhibition" measured_value="7.8% (inactive)"
molecule=ClCCCOc1ccccc1 quantity_name="growth inhibition" measured_value="23.2% (inactive)"
molecule=CN(c1ccccc1)S(=O)(=O)c1ccc([N+](=O)[O-])cc1 quantity_name="growth inhibition" measured_value="-52.7% (inactive)"
molecule=Cc1ccc(S(=O)(=O)/C=C/c2ccccc2)cc1 quantity_name="growth inhibition" measured_value="6.2% (inactive)"
molecule=C=C(CO)[C@H]1Oc2ccc(C(C)=O)cc2[C@@H]1O quantity_name="growth inhibition" measured_value="-10.1% (inactive)"
molecule=CCOC(=O)c1sc(Nc2cc(Cl)ccc2Cl)nc1C quantity_name="growth inhibition" measured_value="-19.6% (inactive)"
molecule=COc1ccc(-c2cc(-c3ccccc3)nc(/N=C\c3ccccc3)n2)c(O)c1 quantity_name="growth inhibition" measured_value="-20.4% (inactive)"
molecule=CCOC(=O)/C(Cl)=C1\SN(C(=O)OCC)N=C1C quantity_name="growth inhibition" measured_value="-3.7% (inactive)"
molecule="CC1(C)OC2C(COCc3ccccc3)=CC(n3ccc(=O)[nH]c3=O)C2O1 (stereo not drawn)" quantity_name="growth inhibition" measured_value="-16.8% (inactive)"
molecule=N#C/C=C/c1ccc(Cl)cc1 quantity_name="growth inhibition" measured_value="-3% (inactive)"
molecule="CC(c1ccccc1)n1cnc2c(Cl)ncnc21 (stereo not drawn)" quantity_name="growth inhibition" measured_value="-16.7% (inactive)"
molecule=Cn1cnc([N+](=O)[O-])c1SC1=NCCS1 quantity_name="growth inhibition" measured_value="-1.4% (inactive)"
molecule=CC[N+](C)(C)c1ccc(/C=C(/C#N)C(=O)OC)cc1 quantity_name="growth inhibition" measured_value="9.8% (inactive)"
molecule=Oc1c(Cl)cc(Cl)cc1/C=N/c1nc(-c2ccc(Cl)cc2)cs1 quantity_name="growth inhibition" measured_value="26.1% (inactive)"
molecule=COc1cccc(/C=C/C(=O)c2sc(C(N)=S)nc2C)c1O quantity_name="growth inhibition" measured_value="1.7% (inactive)"
molecule=COC(=O)/C=C/C(=N/N(C)c1ccccc1)c1ccccc1 quantity_name="growth inhibition" measured_value="-0.2% (inactive)"
molecule=O=c1[nH]c(=S)[nH]c2c1CCC2 quantity_name="growth inhibition" measured_value="25.4% (inactive)"
molecule=C[C@@H]1O[C@]2(O)[C@@H]3CCCN3S(=O)(=O)CCN2C1=O quantity_name="growth inhibition" measured_value="-21.6% (inactive)"

----------
test: NCI Yeast Anticancer Drug Screen. Data for the mec2-1 strain (AID 157); conditions: S. cerevisiae mec2-1 strain, at 50.0 µM, hits give high values
The panel holds about 79,000 compounds, 15% with a hit somewhere; the sample as a whole holds those more often. Calls of active or inactive are those of the source. Rule as the data show it: active = growth inhibition above about 70%; inactive = the rest.
quantity_name: growth inhibition

compound=CC(C)N(C(=O)c1cccc(C(=O)N(C(C)C)C(C)C)c1)C(C)C measured_value="2.45% (inactive)"
compound="CCCC(O)CNCc1ccc2ncccc2c1 (configuration not stated)" measured_value="-4.2% (inactive)"
compound="CSC(C1c2ccccc2N(C)C2=NC(=O)N(C)C(=O)C21Cl)S(=O)(=O)c1ccc(C)cc1 (configuration not stated)" measured_value="12.2% (inactive)"
compound=O=c1[nH]c(Nc2nc3ccccc3[nH]2)nc(O)c1-c1ccccc1 measured_value="-14% (inactive)"
compound=CC[N+](C)(CC)CC[N+]1(C)CCCCCCC1 measured_value="5.45% (inactive)"
compound=COC(=O)c1c(C(=O)Nc2ccc(Cl)cc2)c(C)n(NC(N)=O)c1C measured_value="8.8% (inactive)"
compound="CC(C)OC1(c2ccccc2)OC(c2ccccc2)=CC1=O (configuration not stated)" measured_value="-17.1% (inactive)"
compound="CN(C)C1C(CO)C(CO)C1(C)C (configuration not stated)" measured_value="-8.5% (inactive)"
compound=CCOC(=O)c1ccc(NC(=O)/C=C/C(=O)O)cc1 measured_value="-17.9% (inactive)"
compound="CN1CC2(CO)C(c3ccccn3)N(C)C(c3ccccn3)C(CO)(C1)C2O (configuration not stated)" measured_value="16.4% (inactive)"
compound=CN(CC(=O)NC(=O)c1ccccc1)Cc1ccccc1 measured_value="-9.25% (inactive)"
compound="O=C1C2CSCN2C(=O)C2CSCN12 (configuration not stated)" measured_value="4.45% (inactive)"
compound=CC(=O)Cc1ccc([N+](=O)[O-])cc1 measured_value="-9.25% (inactive)"
compound="CC(=O)Oc1cc(C(F)(F)F)ccc1C(=O)OC1(C)OC(=O)c2ccc(C(F)(F)F)cc2O1 (configuration not stated)" measured_value="-12.9% (inactive)"
compound=O=C1c2cc3c(cc2C(=O)c2ncccc21)CCCC3 measured_value="48.4% (inactive)"
compound=Cc1ccc(S(=O)(=O)NNc2nc(N3CCCCC3)nc(N3CCCCC3)n2)cc1 measured_value="-2.4% (inactive)"
compound="CC1(CO)COC(c2ccccc2)=N1 (configuration not stated)" measured_value="2.85% (inactive)"
compound=N#C/C(=C\c1cccs1)C(=O)c1ccco1 measured_value="4.65% (inactive)"
compound=Cc1ccc(-n2c(C)n[nH]c2=O)cc1 measured_value="-18% (inactive)"
compound=Nc1ccc(C(=O)O)cc1[N+](=O)[O-] measured_value="-4.65% (inactive)"
compound="COCC12CC(CC1=O)C1C2ON2c3ccccc3C(=O)C12c1ccccc1 (configuration not stated)" measured_value="-8.25% (inactive)"
compound="N#CC(C(=O)C(=O)Nc1cccc(Cl)c1)c1ccccc1 (configuration not stated)" measured_value="-6.9% (inactive)"
compound=CCCCC(O)(CCCC)CC(C)C measured_value="19.5% (inactive)"
compound=[N-]=[N+]=Nc1ccc(-c2nc(N)nc(N)n2)cc1 measured_value="0.35% (inactive)"
compound="COC(=O)C1=COC(OC2OC(CO)C(O)C(O)C2O)C2C(C)CC(=O)C12 (configuration not stated)" measured_value="-39% (inactive)"
compound="COC(=O)C1CCCN1C(=O)c1ccccc1 (configuration not stated)" measured_value="-0.4% (inactive)"
compound="COc1ccc(/C=N/N2CN(C(C)C(=O)O)C(O)(CCl)N=C2N)cc1OC (configuration not stated)" measured_value="-8.95% (inactive)"
compound="CCCCCCCC[N+](C)([O-])CCCCCC[N+](C)([O-])CCCCCCCC (configuration not stated)" measured_value="25.2% (inactive)"
compound=C=C(CBr)CCCCC measured_value="23.3% (inactive)"
compound="CCN(CC)C1(C(F)C(F)(F)F)OCC2(CO1)COC(C(F)C(F)(F)F)(N(CC)CC)OC2 (configuration not stated)" measured_value="-13.4% (inactive)"
compound=CCOC(=O)/C(I)=C/c1cc(OC)c(OC)c(OC)c1 measured_value="15.5% (inactive)"
compound=O=c1oc2ccccc2cc1-n1nnc2cc([N+](=O)[O-])ccc21 measured_value="24.1% (inactive)"
compound=CC(C)(O)c1cc(Cl)ccc1Sc1ccccc1 measured_value="-15.2% (inactive)"
compound=CSc1cc(Cl)c(C)cc1S(=O)(=O)NC(=O)NNc1ccccn1 measured_value="-1.6% (inactive)"
compound=O=[N+]([O-])c1ccc(N=C(Nc2ccc([N+](=O)[O-])cc2)c2ccccc2)cc1 measured_value="-16.2% (inactive)"
compound=Clc1c(Cl)c2ccccc2c2ccccc12 measured_value="-8.4% (inactive)"
compound="O/N=C1/C(=C/c2ccccc2)CCCC1C(NO)c1ccccc1 (configuration not stated)" measured_value="10.2% (inactive)"
